- assayedSystem: human prostaglandin E3 receptor (EP3) (Homo sapiens (Human))
- Sequence (P43115 whole entry): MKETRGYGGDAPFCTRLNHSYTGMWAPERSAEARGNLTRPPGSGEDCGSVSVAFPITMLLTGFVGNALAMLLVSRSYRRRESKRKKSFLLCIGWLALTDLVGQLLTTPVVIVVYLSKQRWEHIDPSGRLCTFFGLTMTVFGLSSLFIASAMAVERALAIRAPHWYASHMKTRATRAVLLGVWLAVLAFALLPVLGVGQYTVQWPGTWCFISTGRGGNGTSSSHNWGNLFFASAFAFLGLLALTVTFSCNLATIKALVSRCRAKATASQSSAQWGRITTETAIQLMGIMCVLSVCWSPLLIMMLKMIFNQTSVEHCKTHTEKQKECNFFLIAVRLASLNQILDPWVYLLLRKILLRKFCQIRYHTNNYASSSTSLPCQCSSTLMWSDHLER
- experiment: Functional activity: cellular cAMP HTRF assay, antagonism of sulprostone
- protocolConditions: CHO-K1 cells expressing human EP3; cAMP with 10 nM sulprostone and forskolin; geometric mean
pIC50: −log10 of the molar value.
assayMetric: pIC50

Cc1cccc2ncc(-c3ccc([C@@]4(C)CCCNC4=O)c(=O)[nH]3)cc12	7.51
Cc1cccc2ncc(-c3ccc([C@@]4(C)CCNC4=O)c(=O)[nH]3)cc12	7.47
